B1: Osa-1-4 twister ribozyme (parent)
chain: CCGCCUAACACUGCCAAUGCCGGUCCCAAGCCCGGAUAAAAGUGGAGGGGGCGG

- Variants of: B1
- test_details: self-cleavage, relative activity (ratio to wild type); higher = more cleavage; co-transcriptional
Entry flag: Condition met if self-cleavage reaches 0.2; Condition not met if it does not.

- variant_code: "C31A G50U"
  assigned_category: "Condition not met"
- variant_code: "G42A U43G"
  assigned_category: "Condition not met"
- variant_code: "G45U U18A"
  assigned_category: "Condition not met"
- variant_code: "C25A G53U"
  assigned_category: "Condition not met"
- variant_code: "A10C G42C"
  assigned_category: "Condition not met"
- variant_code: "C11U U43C"
  assigned_category: "Condition met"

Has A7C C52U a recorded self-cleavage greater than or equal to 0.2?
Condition not met

Has A39U G53U a recorded self-cleavage greater than or equal to 0.2?
Condition not met
